The values you see were collected from the supplement of paper PMC5662767.

I'd appreciate it if you could supply normalized SmoIP GFP fluorescence values for the items below.
- System: Drosophila S2 cl14 SmoIP sensor cells
- ASSAY NAME: normalized SmoIP GFP fluorescence (untreated unstimulated = 0%, untreated Hh-stimulated = 100%); higher = more Smo activation sensor fluorescence
- ASSAY CONDITIONS: stimulation: Hh conditioned medium (+Hh); compound concentration: 2 uM; 24 h
Return type: number; implicit unit %.

Request - read-out normalized SmoIP GFP fluorescence | tested on Drosophila S2 cl14 SmoIP sensor cells | compound O=C(/C=C/c1ccc(O)c(O)c1)OCCc1ccccc1 [caffeic-acid-phenethyl-ester]
114

Enter reported normalized SmoIP GFP fluorescence observed with Drosophila S2 cl14 SmoIP sensor cells for Cc1cc(Cl)ccc1OCCCC(=O)NO [Droxinostat]
95.2

Report normalized SmoIP GFP fluorescence for C[C@H]1[C@H](C)CC[C@]2(C(=O)O)CC[C@]3(C)C(=CC[C@@H]4[C@@]5(C)C[C@@H](O)[C@H](O)[C@@](C)(CO)[C@@H]5CC[C@]43C)[C@H]12 [Asiatic-acid] tested on Drosophila S2 cl14 SmoIP sensor cells.
143

====

- System: Drosophila S2 cl14 SmoIP sensor cells;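 note: flow cytometry read-out as median GFP intensity of gated cells, compounds added 30 min before Hh-conditioned or mock medium, mock-treated cells serving as unstimulated baseline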
- ASSAY NAME: normalized SmoIP GFP fluorescence (untreated unstimulated = 0%, untreated Hh-stimulated = 100%); higher = more Smo activation sensor fluorescence
- ASSAY CONDITIONS: stimulation: Hh conditioned medium (+Hh); compound concentration: 2 uM; 24 h
EXPERIMENTAL READOUT: normalized SmoIP GFP fluorescence (%)
Report the figure in % without appending any unit label.

Recorded normalized SmoIP GFP fluorescence for Cc1cc([C@@H](C)Nc2ccccc2C(=O)O)c2nc(N3CCOCC3)cc(=O)n2c1 , please?
94.8

State the recorded normalized SmoIP GFP fluorescence for this entry: Cc1c(Cl)cccc1Nc1ccccc1C(=O)O
88.3

Quick one: normalized SmoIP GFP fluorescence for Cn1cc(C2=C(c3ccc(Cl)cc3Cl)C(=O)NC2=O)c2ccccc21 ?
115

Report normalized SmoIP GFP fluorescence for CC(C)(Cc1ccc2ccccc2c1)NC[C@@H](O)COc1cccc(Cl)c1C#N please.
157

So what's the measured normalized SmoIP GFP fluorescence for this one? CC(C)C[C@H](NC(=O)[C@H]1O[C@@H]1C(=O)O)C(=O)NCCCCN=C(N)N
129

If you can, please state the reported normalized SmoIP GFP fluorescence value of CN1CCN(C2=Nc3cc(Cl)ccc3Nc3ccccc32)CC1 .
119

# lookup: normalized SmoIP GFP fluorescence of Cc1nc(Nc2ncc(C(=O)Nc3c(C)cccc3Cl)s2)cc(N2CCN(CCO)CC2)n1
126

Any idea what its normalized SmoIP GFP fluorescence is? The molecule is COc1cc2ncnc(Nc3cccc(Cl)c3)c2cc1OC
157

Returns the measured normalized SmoIP GFP fluorescence for the input molecule. Input: CCC(CC)CC1(C(=O)Nc2ccccc2SC(=O)C(C)C)CCCCC1
137

Which measured normalized SmoIP GFP fluorescence value corresponds to COc1ccc2c(c1)C(=O)N(CCc1ccc(S(=O)(=O)NC(=O)NC3CCCCC3)cc1)C(=O)C2(C)C ?
105

Entry O=C(O)c1ccc(Nc2ncc3c(n2)-c2ccc(Cl)cc2C(c2c(F)cccc2F)=NC3)cc1 : reported normalized SmoIP GFP fluorescence = ?
271

I'd like to know its normalized SmoIP GFP fluorescence. The molecule in question is C[C@H]1COC2=C1C(=O)C(=O)c1c2ccc2c1CCCC2(C)C
115
